Test system: 354836-022-R-J1-PDC multicell spheroid viability
Experiment: Anticancer human tumor 354836-022-R-J1-PDC patient-derived head and neck squamous cell carcinoma cell line growth inhibition [PI3K]
Conditions: second compound 10 µM; first compound 0.1 µM; stronger effect = lower value
viability, T/C overview
Give a bare numeral; the unit % is implied.

Record excerpt, results attached:
Cn1ncnc1[C@H]1c2n[nH]c(=O)c3cc(F)cc(c23)N[C@@H]1c1ccc(F)cc1 + Cc1nc(NC(=O)N2CCCC2C(N)=O)sc1-c1ccnc(C(C)(C)C(F)(F)F)c1 ... 30.3
CC(=O)c1c(C)c2cnc(Nc3ccc(N4CCNCC4)cn3)nc2n(C2CCCC2)c1=O + Cc1nc(NC(=O)N2CCCC2C(N)=O)sc1-c1ccnc(C(C)(C)C(F)(F)F)c1 ... 39.7

Now for another entry.
For 354836-022-R-J1-PDC multicell spheroid viability, provide viability, T/C of Cn1ncc(Cl)c1-c1cc(C(=O)NC(CN)Cc2cccc(F)c2)sc1Cl (stereo not drawn) + Cc1nc(NC(=O)N2CCCC2C(N)=O)sc1-c1ccnc(C(C)(C)C(F)(F)F)c1 please.
29.4

---

Each record here notes measured viability, T/C.
Tested on: 354836-022-R-J1-PDC multicell spheroid viability
Test: Anticancer human tumor 354836-022-R-J1-PDC cell line growth inhibition [PI3K];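 also: spheroids exposed to agents for seven days before the viability read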
Conditions: second compound 0.316 µM; first compound 0.1 µM; stronger effect = lower value
Return type: number; implicit unit %.

Given Cn1nccc1Nc1nccc(-c2ccn(C(CO)c3ccc(Cl)c(F)c3)c(=O)c2)n1 (stereo not drawn) + Cc1nc(NC(=O)N2CCCC2C(N)=O)sc1-c1ccnc(C(C)(C)C(F)(F)F)c1 , state its recorded viability, T/C.
91.3

# input molecule: CCN1CCN(Cc2ccc(Nc3ncc(F)c(-c4cc(F)c5nc(C)n(C(C)C)c5c4)n3)nc2)CC1 + CC(Nc1ncnc2nc[nH]c12)c1cc2cccc(Cl)c2c(=O)n1-c1ccccc1 ; wanted: its viability, T/C
104

Item under review: Cn1ncnc1[C@H]1c2n[nH]c(=O)c3cc(F)cc(c23)N[C@@H]1c1ccc(F)cc1 + COc1c(OCCCN2CCOCC2)ccc2c3n(c(=NC(=O)c4cnc(N)nc4)nc12)CCN3 . Reported viability, T/C?
7.08

---

System: 354836-022-R-J1-PDC multicell spheroid viability
Assay: Anticancer human tumor 354836-022-R-J1-PDC cell line growth inhibition [PI3K];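 also: spheroids exposed to agents for seven days before the viability read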
Conditions: second compound 1 µM; first compound 0.0316 µM; stronger effect = lower value
Cut-off 70% on viability, T/C: below means criterion met, at or above means criterion not met.

These solved cases illustrate the format of a correct answer.
CCN1CCN(Cc2ccc(Nc3ncc(F)c(-c4cc(F)c5nc(C)n(C(C)C)c5c4)n3)nc2)CC1 + CC(Nc1ccc2c(c1)OCCn1cc(N3C(=O)OCC3C(F)F)nc1-2)C(N)=O ... criterion met
CC(Cn1ccc(-c2ccc(C#N)c(Cl)c2)n1)NC(=O)c1cc(C(C)O)[nH]n1 (configuration not stated) + CC(Nc1ncnc2nc[nH]c12)c1cc2cccc(Cl)c2c(=O)n1-c1ccccc1 ... criterion not met
Cn1nccc1Nc1nccc(-c2ccn(C(CO)c3ccc(Cl)c(F)c3)c(=O)c2)n1 (configuration not stated) + Cc1nc(NC(=O)N2CCCC2C(N)=O)sc1-c1ccnc(C(C)(C)C(F)(F)F)c1 ... criterion not met
CCN1CCN(Cc2ccc(Nc3ncc(F)c(-c4cc(F)c5nc(C)n(C(C)C)c5c4)n3)nc2)CC1 + COc1c(OCCCN2CCOCC2)ccc2c3n(c(=NC(=O)c4cnc(N)nc4)nc12)CCN3 ... criterion met
Cn1ncc(Cl)c1-c1cc(C(=O)NC(CN)Cc2cccc(F)c2)sc1Cl (configuration not stated) + CC(Nc1ccc2c(c1)OCCn1cc(N3C(=O)OCC3C(F)F)nc1-2)C(N)=O ... criterion met

# check: viability, T/C < 70% for CCCS(=O)(=O)Nc1ccc(F)c(C(=O)c2c[nH]c3ncc(-c4ccc(Cl)cc4)cc23)c1F + Cc1nc(NC(=O)N2CCCC2C(N)=O)sc1-c1ccnc(C(C)(C)C(F)(F)F)c1
criterion not met

---

Tested on: 354836-022-R-J1-PDC multicell spheroid viability
Experiment: Anticancer human tumor 354836-022-R-J1-PDC cell line growth inhibition [PI3K];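 also: spheroids exposed to agents for seven days before the viability read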
Conditions: second compound 10 µM; first compound 0.1 µM; stronger effect = lower value
REPORTED_PROPERTY: viability, T/C (%)
Express it in %; write the number only.

C[C@@H](NC(=O)c1ncnc(N)c1Cl)c1ncc(C(=O)Nc2cc(C(F)(F)F)c(Cl)cn2)s1 + Cc1nc(NC(=O)N2CCCC2C(N)=O)sc1-c1ccnc(C(C)(C)C(F)(F)F)c1 ... 38.4

Looking for the measured viability, T/C of CCN1CCN(Cc2ccc(Nc3ncc(F)c(-c4cc(F)c5nc(C)n(C(C)C)c5c4)n3)nc2)CC1 + Cc1nc(NC(=O)N2CCCC2C(N)=O)sc1-c1ccnc(C(C)(C)C(F)(F)F)c1 , can you help?
28.9

Given the compound C#Cc1c(F)ccc2cc(O)cc(-c3ncc4c(N5CC6CCC(C5)N6)nc(OCC56CCCN5CC(F)C6)nc4c3F)c12 (stereo not given) + CC(Nc1ncnc2nc[nH]c12)c1cc2cccc(Cl)c2c(=O)n1-c1ccccc1 , what is its reported viability, T/C?
82.5

Return reported viability, T/C; argument: CC(Cn1ccc(-c2ccc(C#N)c(Cl)c2)n1)NC(=O)c1cc(C(C)O)[nH]n1 (stereo not given) + CC(Nc1ncnc2nc[nH]c12)c1cc2cccc(Cl)c2c(=O)n1-c1ccccc1
93.2

Recorded viability, T/C for C=CC(=O)N1CCN(c2nc(=O)n(-c3c(C)ccnc3C(C)C)c3nc(-c4c(O)cccc4F)c(F)cc23)C(C)C1 (stereo not given) + CC(Nc1ncnc2nc[nH]c12)c1cc2cccc(Cl)c2c(=O)n1-c1ccccc1 , please?
89.4

---

Examples of compounds with documented viability, T/C follow.
Test system: 354836-022-R-J1-PDC multicell spheroid viability
Test: Anticancer human tumor 354836-022-R-J1-PDC cell line growth inhibition [PI3K];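 also: spheroids exposed to agents for seven days before the viability read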
Conditions: second compound 10 µM; first compound 0.0316 µM; stronger effect = lower value
Give the quantity in %, number only.

CC1(C)CCC(Nc2ncc(C(F)(F)F)c(-c3c[nH]c4c(P(C)(C)=O)c(C#N)ccc34)n2)CN1 (stereo not drawn) + CC(Nc1ncnc2nc[nH]c12)c1cc2cccc(Cl)c2c(=O)n1-c1ccccc1 ... 17
C=CC(=O)N1CCN(c2nc(=O)n(-c3c(C)ccnc3C(C)C)c3nc(-c4c(O)cccc4F)c(F)cc23)C(C)C1 (stereo not drawn) + CC(Nc1ncnc2nc[nH]c12)c1cc2cccc(Cl)c2c(=O)n1-c1ccccc1 ... 98

Shift focus to the following entry.
Recorded viability, T/C for C#Cc1c(F)ccc2cc(O)cc(-c3ncc4c(N5CC6CCC(C5)N6)nc(OCC56CCCN5CC(F)C6)nc4c3F)c12 (stereo not drawn) + Cc1nc(NC(=O)N2CCCC2C(N)=O)sc1-c1ccnc(C(C)(C)C(F)(F)F)c1 , please?
34.2

---

# reported viability, T/C; entries follow
Test system: 354836-022-R-J1-PDC multicell spheroid viability
Test: Anticancer human tumor 354836-022-R-J1-PDC cell line growth inhibition [PI3K];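 also: spheroids exposed to agents for seven days before the viability read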
Conditions: second compound 0.01 µM; first compound 0.316 µM; stronger effect = lower value
From the text: Combinatorial screen of targeted agents with the PI3K inhibitors inavolisib, alpelisib, duvelisib, and copanlisib in multi-cell type tumor spheroids A high-throughput screen of multi-cell type tumor spheroids was designed to identify active combinations of targeted small molecules and PI3K pathway inhibitors. […] Compounds. […] If the clinical Cmax for an agent had not been determined, the highest concentration tested was 10 microM. […]
Respond numerically; units are % and should not be typed.

For orientation, consider the following solved cases.
CC1(C)CCC(Nc2ncc(C(F)(F)F)c(-c3c[nH]c4c(P(C)(C)=O)c(C#N)ccc34)n2)CN1 (stereo not given) + COc1c(OCCCN2CCOCC2)ccc2c3n(c(=NC(=O)c4cnc(N)nc4)nc12)CCN3 ... 13
CCN1CCN(Cc2ccc(Nc3ncc(F)c(-c4cc(F)c5nc(C)n(C(C)C)c5c4)n3)nc2)CC1 + CC(Nc1ccc2c(c1)OCCn1cc(N3C(=O)OCC3C(F)F)nc1-2)C(N)=O ... 89.2
CC1(C)CCC(Nc2ncc(C(F)(F)F)c(-c3c[nH]c4c(P(C)(C)=O)c(C#N)ccc34)n2)CN1 (stereo not given) + CC(Nc1ccc2c(c1)OCCn1cc(N3C(=O)OCC3C(F)F)nc1-2)C(N)=O ... 27.8
CC1(C)CCC(CN2CCN(c3ccc(C(=O)NS(=O)(=O)c4ccc(NCC5CCOCC5)c([N+](=O)[O-])c4)c(Oc4cnc5[nH]ccc5c4)c3)CC2)=C(c2ccc(Cl)cc2)C1 + CC(Nc1ccc2c(c1)OCCn1cc(N3C(=O)OCC3C(F)F)nc1-2)C(N)=O ... 95.2
Cn1ncc(Cl)c1-c1cc(C(=O)NC(CN)Cc2cccc(F)c2)sc1Cl (stereo not given) + CC(Nc1ccc2c(c1)OCCn1cc(N3C(=O)OCC3C(F)F)nc1-2)C(N)=O ... 30.2
CC(Cn1ccc(-c2ccc(C#N)c(Cl)c2)n1)NC(=O)c1cc(C(C)O)[nH]n1 (stereo not given) + COc1c(OCCCN2CCOCC2)ccc2c3n(c(=NC(=O)c4cnc(N)nc4)nc12)CCN3 ... 92.5

Fill in: viability, T/C of CC1(C)CCC(CN2CCN(c3ccc(C(=O)NS(=O)(=O)c4ccc(NCC5CCOCC5)c([N+](=O)[O-])c4)c(Oc4cnc5[nH]ccc5c4)c3)CC2)=C(c2ccc(Cl)cc2)C1 + COc1c(OCCCN2CCOCC2)ccc2c3n(c(=NC(=O)c4cnc(N)nc4)nc12)CCN3 is ___
95

If you can, please state the reported viability, T/C value of C=CC(=O)N1CCN(c2nc(=O)n(-c3c(C)ccnc3C(C)C)c3nc(-c4c(O)cccc4F)c(F)cc23)C(C)C1 (stereo not given) + CC(Nc1ccc2c(c1)OCCn1cc(N3C(=O)OCC3C(F)F)nc1-2)C(N)=O .
93.1

// viability, T/C lookup, key: C#Cc1c(F)ccc2cc(O)cc(-c3ncc4c(N5CC6CCC(C5)N6)nc(OCC56CCCN5CC(F)C6)nc4c3F)c12 (stereo not given) + CC(Nc1ccc2c(c1)OCCn1cc(N3C(=O)OCC3C(F)F)nc1-2)C(N)=O
93.4

What does the record list as viability, T/C for C=CC(=O)N1CCN(c2nc(=O)n(-c3c(C)ccnc3C(C)C)c3nc(-c4c(O)cccc4F)c(F)cc23)C(C)C1 (stereo not given) + COc1c(OCCCN2CCOCC2)ccc2c3n(c(=NC(=O)c4cnc(N)nc4)nc12)CCN3 ?
98.5
